meta.source: patent US9751888B2

Can you tell me IC50 for the items I'm about to list?
# systemTested: human Class I PI3 kinase δ (Homo sapiens (Human), UniProt O00329)
# Sequence (O00329 whole entry, one chain of several, canonical isoform): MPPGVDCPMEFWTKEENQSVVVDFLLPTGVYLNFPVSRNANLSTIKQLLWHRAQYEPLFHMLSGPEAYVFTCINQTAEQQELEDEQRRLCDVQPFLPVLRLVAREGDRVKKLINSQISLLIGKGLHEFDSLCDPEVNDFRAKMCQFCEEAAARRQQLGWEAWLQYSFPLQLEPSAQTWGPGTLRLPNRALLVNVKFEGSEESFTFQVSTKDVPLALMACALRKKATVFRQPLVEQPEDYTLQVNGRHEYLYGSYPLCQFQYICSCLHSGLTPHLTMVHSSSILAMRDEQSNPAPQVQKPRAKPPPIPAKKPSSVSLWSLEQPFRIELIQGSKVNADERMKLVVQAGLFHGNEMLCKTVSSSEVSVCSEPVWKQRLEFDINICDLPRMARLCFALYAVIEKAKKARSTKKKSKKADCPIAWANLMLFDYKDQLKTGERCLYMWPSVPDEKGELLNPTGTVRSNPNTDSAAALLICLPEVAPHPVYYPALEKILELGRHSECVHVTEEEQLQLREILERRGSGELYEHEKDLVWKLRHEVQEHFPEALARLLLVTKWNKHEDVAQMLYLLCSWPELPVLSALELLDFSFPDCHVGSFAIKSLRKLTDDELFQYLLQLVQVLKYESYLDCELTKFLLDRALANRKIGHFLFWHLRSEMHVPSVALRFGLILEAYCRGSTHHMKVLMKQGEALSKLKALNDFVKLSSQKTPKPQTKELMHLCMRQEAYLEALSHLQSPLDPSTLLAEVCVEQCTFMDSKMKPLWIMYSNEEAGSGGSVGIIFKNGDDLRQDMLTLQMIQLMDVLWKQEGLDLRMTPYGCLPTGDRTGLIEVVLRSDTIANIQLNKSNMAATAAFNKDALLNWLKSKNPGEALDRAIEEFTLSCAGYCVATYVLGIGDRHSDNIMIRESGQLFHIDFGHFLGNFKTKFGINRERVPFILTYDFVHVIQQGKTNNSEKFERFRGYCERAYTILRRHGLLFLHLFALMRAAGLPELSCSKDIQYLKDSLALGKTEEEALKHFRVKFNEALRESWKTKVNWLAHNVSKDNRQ
# measurementNotes: PI3-Kinase Promega ADP-Glo Max assay, δ isoform
# testSettings: 20 nM kinase, 3 mM ATP, 500 uM diC8-PtdInsP; read-out: Promega δ PI3K IC50

Give IC50 for each listed item.
1. C[C@H](NC(=O)c1c(N)nn2cccnc12)c1cc2cccc(Cl)c2c(=O)n1-c1ccc(O)cc1
2. C[C@H](NC(=O)c1c(N)nn2cccnc12)c1cc2cccc(Cl)c2c(=O)n1Cc1nnn[nH]1
3. C[C@H](NC(=O)c1c(N)nn2cccnc12)c1cc2cccc(Cl)c2c(=O)n1-c1ccccc1NS(C)(=O)=O
4. C[C@H](NC(=O)c1c(N)nn2cccnc12)c1cc2cccc(Cl)c2c(=O)n1-c1cccc(S(C)(=O)=O)c1

["100 to 500 nM", "1000 to 10000 nM", "1000 to 10000 nM", "1000 to 10000 nM"]

Give IC50 for each listed item.
1. Cc1noc(CCn2c([C@H](C)NC(=O)c3c(N)nn4cccnc34)cc3cccc(Cl)c3c2=O)n1
2. C[C@H](NC(=O)c1c(N)nn2cccnc12)c1cc2cccc(Cl)c2c(=O)n1-c1ccccc1S(C)(=O)=O
3. C[C@H](NC(=O)c1c(N)ncn2ccnc12)c1cc2cccc(Cl)c2c(=O)n1-c1ccccc1
4. CC(C)C(=O)Cc1cccc2cc([C@H](C)NC(=O)c3c(N)nn4cccnc34)n(-c3ccccc3)c(=O)c12
5. C[C@H](NC(=O)c1c(N)nn2cccnc12)c1cc2cccc(Cl)c2c(=O)n1-c1cccnc1

1: 1000 to 10000 nM; 2: 1000 to 10000 nM; 3: 100 to 500 nM; 4: 1000 to 10000 nM; 5: 1000 to 10000 nM

* * *

Can you tell me pIC50 for the items I'm about to list?
# systemTested: human Class I PI3 kinase α (Homo sapiens (Human))
# Sequence (P42336 whole entry, canonical isoform): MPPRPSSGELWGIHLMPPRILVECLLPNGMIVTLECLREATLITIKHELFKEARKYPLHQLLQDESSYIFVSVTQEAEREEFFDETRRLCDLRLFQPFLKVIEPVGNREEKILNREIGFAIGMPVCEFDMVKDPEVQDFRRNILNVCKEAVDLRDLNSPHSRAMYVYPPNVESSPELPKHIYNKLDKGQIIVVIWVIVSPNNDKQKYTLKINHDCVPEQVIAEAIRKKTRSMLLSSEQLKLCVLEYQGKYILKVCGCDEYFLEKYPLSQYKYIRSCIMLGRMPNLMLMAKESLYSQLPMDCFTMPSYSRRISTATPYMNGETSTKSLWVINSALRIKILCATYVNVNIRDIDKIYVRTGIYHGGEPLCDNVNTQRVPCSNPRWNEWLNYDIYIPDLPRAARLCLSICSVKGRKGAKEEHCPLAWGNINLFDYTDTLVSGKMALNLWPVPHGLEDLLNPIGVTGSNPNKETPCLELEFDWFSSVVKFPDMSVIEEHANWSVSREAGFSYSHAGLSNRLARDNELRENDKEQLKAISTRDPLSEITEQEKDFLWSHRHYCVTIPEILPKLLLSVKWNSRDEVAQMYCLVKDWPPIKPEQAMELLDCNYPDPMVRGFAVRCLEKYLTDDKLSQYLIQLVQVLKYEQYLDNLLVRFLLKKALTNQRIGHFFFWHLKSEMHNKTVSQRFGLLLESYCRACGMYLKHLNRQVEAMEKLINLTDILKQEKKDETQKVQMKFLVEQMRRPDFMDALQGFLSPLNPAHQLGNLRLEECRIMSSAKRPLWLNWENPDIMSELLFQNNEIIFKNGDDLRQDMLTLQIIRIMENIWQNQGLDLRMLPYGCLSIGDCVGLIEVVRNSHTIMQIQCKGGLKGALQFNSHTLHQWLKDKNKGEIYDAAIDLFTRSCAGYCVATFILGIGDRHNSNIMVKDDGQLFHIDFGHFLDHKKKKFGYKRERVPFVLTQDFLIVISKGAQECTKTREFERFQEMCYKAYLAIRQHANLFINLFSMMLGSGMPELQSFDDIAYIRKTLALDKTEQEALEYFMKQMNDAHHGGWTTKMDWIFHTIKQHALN
# Sequence (P27986 whole entry partner, canonical isoform): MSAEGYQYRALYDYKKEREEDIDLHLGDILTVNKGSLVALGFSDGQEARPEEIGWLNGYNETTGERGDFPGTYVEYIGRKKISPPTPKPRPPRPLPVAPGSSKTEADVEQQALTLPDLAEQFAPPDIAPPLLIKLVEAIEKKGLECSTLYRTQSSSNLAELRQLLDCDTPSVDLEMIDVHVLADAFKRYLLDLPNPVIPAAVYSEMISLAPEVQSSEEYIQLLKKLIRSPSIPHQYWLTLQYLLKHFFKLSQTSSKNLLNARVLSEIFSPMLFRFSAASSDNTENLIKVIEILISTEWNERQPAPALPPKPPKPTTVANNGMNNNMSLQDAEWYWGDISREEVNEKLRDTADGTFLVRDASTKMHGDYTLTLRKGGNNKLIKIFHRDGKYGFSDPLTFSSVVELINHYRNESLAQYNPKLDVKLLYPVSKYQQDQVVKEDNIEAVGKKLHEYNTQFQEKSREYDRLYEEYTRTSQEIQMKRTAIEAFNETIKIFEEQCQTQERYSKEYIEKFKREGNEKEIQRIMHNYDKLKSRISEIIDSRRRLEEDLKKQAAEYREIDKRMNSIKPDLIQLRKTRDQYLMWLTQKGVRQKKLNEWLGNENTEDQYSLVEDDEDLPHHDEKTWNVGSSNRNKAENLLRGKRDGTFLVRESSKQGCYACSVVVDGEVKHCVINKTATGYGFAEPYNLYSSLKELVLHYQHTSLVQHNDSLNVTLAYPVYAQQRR
# measurementNotes: PI3-Kinase Promega ADP-Glo Max assay, α isoform
# testSettings: 20 nM kinase, 3 mM ATP, 500 uM diC8-PtdInsP; read-out: Promega α PI3K IC50
pIC50: −log10 of the molar value.

Use these answered entries as a reference point.
1) C[C@H](NC(=O)c1c(N)nn2cccnc12)c1nc2ccccc2c(=O)n1-c1ccccc1 [Compound 95]: 5.00 to 6.00
2) C[C@H](NC(=O)c1c(N)nn2cccnc12)c1cc2cccc(Cl)c2c(=O)n1CCc1nnn(C)n1 [Compound 56]: 5.00 to 6.00
3) C[C@H](NC(=O)c1c(N)ncn2ccnc12)c1cc2cccc(Cl)c2c(=O)n1-c1ccccc1 [Compound 43]: 5.00 to 6.00

Please examine the following record next.
# value of pIC50, human Class I PI3 kinase α (Homo sapiens (Human)), item Cc1ccccc1-n1c([C@H](C)NC(=O)c2c(N)nn3cccnc23)cc2cccc(Cl)c2c1=O [Compound 73] = 5.00 to 6.00

* * *

Can you tell me IC50 for the items I'm about to list?
# systemTested: human Class I PI3 kinase γ (Homo sapiens (Human))
# Sequence (P48736 whole entry, canonical isoform): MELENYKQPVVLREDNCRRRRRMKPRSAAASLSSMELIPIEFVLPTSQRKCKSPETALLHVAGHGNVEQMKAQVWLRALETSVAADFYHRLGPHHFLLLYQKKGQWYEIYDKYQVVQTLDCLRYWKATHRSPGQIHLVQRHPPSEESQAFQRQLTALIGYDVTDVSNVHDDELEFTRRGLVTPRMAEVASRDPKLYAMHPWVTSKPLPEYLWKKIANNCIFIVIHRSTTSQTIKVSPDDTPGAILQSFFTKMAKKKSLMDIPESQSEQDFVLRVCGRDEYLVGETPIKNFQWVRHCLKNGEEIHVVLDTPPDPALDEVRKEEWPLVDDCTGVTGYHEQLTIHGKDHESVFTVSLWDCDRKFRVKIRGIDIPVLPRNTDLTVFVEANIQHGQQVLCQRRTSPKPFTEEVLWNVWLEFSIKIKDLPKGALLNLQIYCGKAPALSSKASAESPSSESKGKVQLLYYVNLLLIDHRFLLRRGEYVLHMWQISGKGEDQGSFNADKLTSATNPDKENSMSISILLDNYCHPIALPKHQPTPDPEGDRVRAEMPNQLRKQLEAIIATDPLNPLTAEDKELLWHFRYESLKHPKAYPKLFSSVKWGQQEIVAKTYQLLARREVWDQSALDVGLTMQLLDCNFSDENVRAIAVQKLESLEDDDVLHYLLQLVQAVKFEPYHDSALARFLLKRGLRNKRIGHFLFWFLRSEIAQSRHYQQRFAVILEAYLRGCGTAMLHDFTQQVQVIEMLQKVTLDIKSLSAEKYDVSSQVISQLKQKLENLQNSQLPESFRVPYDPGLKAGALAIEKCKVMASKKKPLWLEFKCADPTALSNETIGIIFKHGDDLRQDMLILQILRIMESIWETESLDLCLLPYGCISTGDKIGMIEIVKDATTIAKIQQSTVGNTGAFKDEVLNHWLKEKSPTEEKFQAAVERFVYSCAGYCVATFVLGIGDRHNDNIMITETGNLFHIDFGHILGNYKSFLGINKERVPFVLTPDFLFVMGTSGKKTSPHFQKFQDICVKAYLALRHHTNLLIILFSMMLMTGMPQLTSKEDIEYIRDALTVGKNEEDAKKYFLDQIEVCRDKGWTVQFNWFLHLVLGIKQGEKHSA
# measurementNotes: PI3-Kinase Promega ADP-Glo Max assay, γ isoform
# testSettings: 40 nM kinase, 3 mM ATP, 500 uM diC8-PtdInsP; read-out: Promega γ PI3K IC50

Use these answered entries as a reference point.
1) C[C@H](NC(=O)c1c(N)nn2cccnc12)c1cc2cccc(Cl)c2c(=O)n1-c1ccccc1F: 0.1 to 0.5 µM
2) C[C@H](NC(=O)c1c(N)nn2cccnc12)c1cc2cccc(Cl)c2c(=O)n1CCc1nnnn1C: 0.1 to 0.5 µM
3) C[C@H](NC(=O)c1c(N)nn2cccnc12)c1cc2cccc(Cl)c2c(=O)n1CCS(=O)(=O)N(C)C: 0.01 to 0.1 µM

Give IC50 for each listed item.
1. C[C@H](NC(=O)c1c(N)nn2cccnc12)c1cc2cccc(Cl)c2c(=O)n1C1CC(NS(C)(=O)=O)C1 (stereo partly shown)
2. Cc1noc(CCn2c([C@H](C)NC(=O)c3c(N)nn4cccnc34)cc3cccc(Cl)c3c2=O)n1
3. C[C@H](NC(=O)c1c(N)nn2cccnc12)c1cc2cccc(Cl)c2c(=O)n1-c1cccnc1

["1 to 10 µM", "1 to 10 µM", "0.1 to 0.5 µM"]

So for C[C@H](NC(=O)c1c(N)nn2cccnc12)c1cc2cccc(Cl)c2c(=O)n1Cc1nnn[nH]1 , the logged IC50 turned out to be 0.1 to 0.5 µM
